- System: Aβ40 in conditioned medium of cells stably expressing Amyloid Precursor Protein (APP)
- protocol-details: In vitro BACE cell-based assay (Aβ40 in conditioned medium, sandwich ELISA)
- stated-conditions: Homo sapiens, HEK293, average IC50; read-out: HEK cell assay
Assign pIC50 to each entry below.
# pIC50 is unitless: minus log10 of the molar concentration; print number only

[in] Consider the compound NC1=N[C@@]2(CO1)c1cc(-c3cccnc3F)ccc1Oc1c(F)cc(-c3cccnn3)cc12 and give its recorded pIC50.
[out] 8.12

[in] Answer with reported pIC50 of NC1=N[C@@]2(CO1)c1cc(Oc3ccc(Cl)cn3)ccc1Oc1c(F)cc(C3=CCOCC3)cc12
[out] 5.70

[in] Please give measured pIC50 of the following entry: CC1(C#Cc2cc3c(cn2)Oc2ccc(-c4cccc(Cl)c4)cc2[C@@]32COC(N)=N2)COC1
[out] 7.52

[in] Using known records, supply pIC50 for Cn1cc(-c2cccc(-c3ccc4c(c3)[C@@]3(COC(N)=N3)c3cc(C5=CCOCC5)ncc3O4)c2)cn1
[out] 6.54

---

- Test system: Aβ40 in conditioned medium of cells stably expressing Amyloid Precursor Protein (APP)
- protocol-details: In vitro BACE cell-based assay (Aβ40 in conditioned medium, sandwich ELISA)
- stated-conditions: Homo sapiens, HEK293, average IC50; read-out: HEK cell assay
Answer each item with its documented log10(IC50).
Hi team, quick reminder: these entries are log10 of IC50 (nM).

[in] Return reported log10(IC50). Input compound: Cc1ccnc(Oc2ccc3c(c2)[C@@]2(COC(N)=N2)c2cc(C4=CCOCC4)cc(F)c2O3)c1
[out] 3.17

[in] For the compound CC1(C#Cc2cnc3c(c2)[C@@]2(COC(N)=N2)c2cc(-c4cccnc4F)c(F)cc2O3)COC1 , report log10(IC50).
[out] 0.56

[in] Return log10(IC50) for the following compound: NC1=N[C@@]2(CS1)c1cc(-c3cccnc3F)ccc1Oc1ncc(-c3cccnc3)cc12
[out] 0.90

[in] Provide measured log10(IC50) value, entry: COc1ccc(-c2cc(F)c3c(c2)[C@]2(COC(N)=N2)c2cc(-c4cccnc4F)ccc2O3)nn1
[out] 0.90

[in] Answer with reported log10(IC50) of N#Cc1cncc(-c2ccc3c(c2)[C@@]2(COC(N)=N2)c2cc(C4=CCOCC4)ccc2O3)c1
[out] 1.36

[in] Give the reported value of log10(IC50) for this record: CC#Cc1cncc(-c2ccc3c(c2)[C@@]2(COC(N)=N2)c2cc(-c4ccnc(C)c4)nc(F)c2O3)c1
[out] 0.90

[in] Note down log10(IC50) recorded for C[C@H]1COCCN1c1cc(F)c2c(c1)[C@]1(CSC(N)=N1)c1cc(-c3cccnc3F)ccc1O2
[out] 0.60

---

- assayed-system: Beta Secretase enzyme (BACE) (Homo sapiens)
- Sequence (P56817 46-501, species assumed): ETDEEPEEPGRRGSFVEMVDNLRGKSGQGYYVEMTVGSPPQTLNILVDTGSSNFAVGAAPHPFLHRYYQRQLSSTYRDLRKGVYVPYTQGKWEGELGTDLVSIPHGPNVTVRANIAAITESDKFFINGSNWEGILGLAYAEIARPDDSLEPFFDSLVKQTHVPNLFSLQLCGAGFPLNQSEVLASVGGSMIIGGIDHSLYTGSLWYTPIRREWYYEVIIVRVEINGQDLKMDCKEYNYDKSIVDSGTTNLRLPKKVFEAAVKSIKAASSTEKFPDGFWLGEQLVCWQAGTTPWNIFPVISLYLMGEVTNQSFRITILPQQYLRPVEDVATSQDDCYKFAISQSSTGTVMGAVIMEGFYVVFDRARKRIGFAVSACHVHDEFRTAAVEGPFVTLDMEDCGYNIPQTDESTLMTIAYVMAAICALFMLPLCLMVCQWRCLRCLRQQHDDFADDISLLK
- protocol-details: In vitro enzymatic BACE FRET (fluorescence resonance energy transfer) assay
- Assay type: biochemical
- stated-conditions: average IC50, enzyme assay; read-out: BACE 1 FRET assay
experimental-readout: pIC50
Keep in mind that pIC50 stands for -log10 of concentration in molar terms.

[in] Complete the entry with pIC50 for NC1=N[C@@]2(CO1)c1cc(-c3cncc(F)c3)ccc1Oc1c(F)cc(N3CCOCC3)cc12
[out] 8.82

[in] Name the recorded pIC50 of the molecule listed here: CC#Cc1cnc(F)c(-c2ccc3c(c2)[C@@]2(COC(N)=N2)c2cc(C4=CCOCC4)cnc2O3)c1
[out] 9.52

[in] Please look at this molecule and report its pIC50: NC1=N[C@@]2(CO1)c1cc(-c3cnccc3F)ccc1Oc1cnc(Cl)cc12
[out] 6.99

[in] Consider the molecule COc1cc(F)c2c(c1)[C@@]1(COC(N)=N1)c1cc(Br)c(F)cc1O2 . State its measured pIC50.
[out] 5.94

---

- assayed-system: UniProtKB P56817
- protocol-details: In vitro enzymatic BACE FRET (fluorescence resonance energy transfer) assay
- Format: biochemical
- stated-conditions: average IC50, enzyme assay; read-out: BACE 1 FRET assay
experimental-readout: pIC50
The scale used: pIC50 is minus the common logarithm of the concentration in molar units.

[in] Please list pIC50 recorded for the molecule NC1=N[C@]2(CO1)c1cc(-c3cccnc3F)ccc1Oc1c2cc(C2=CCOCC2)c(F)c1F [Example 1010]
[out] 8.03

[in] Give recorded pIC50. COc1cc(F)c2c(c1)[C@@]1(CSC(N)=N1)c1cc(-c3cnccn3)ccc1O2 [Example 222]
[out] 7.38

[in] Report pIC50 for NC1=N[C@@]2(CO1)c1cc(Oc3ccc(Cl)cn3)ccc1Oc1c(F)cc(C3=CCOCC3)cc12 [Example 1066]
[out] 7.28

[in] Give a short answer stating reported pIC50 for NC1=N[C@@]2(CO1)c1cc(-c3cccnc3F)ccc1Oc1c(F)cc(-c3cccnn3)cc12 [Example 201] .
[out] 8.74

[in] Input NC1=N[C@]2(CO1)c1cc(C3=CCCOC3)ccc1Oc1cc(F)c(-c3cncnc3)cc12 [Example 514] , output reported pIC50.
[out] 8.59

[in] Kindly indicate its recorded pIC50. Item: Cc1cc(-c2ccc3c(c2)[C@@]2(COC(N)=N2)c2cc(-c4ccncc4)ncc2O3)cnc1F [Example 229]
[out] 7.89

[in] Look up and report measured pIC50 for this entry: CC(C)(C)C#Cc1cc2c(cn1)Oc1ccc(-c3c(F)ccnc3F)cc1[C@@]21COC(N)=N1 [Example 165]
[out] 8.70

[in] Tell me pIC50 reported for NC1=N[C@@]2(CO1)c1cc(-c3cccnc3)ccc1Oc1c2cc(C2=CCOCC2)nc1F [Example 639]
[out] 9.40

[in] In one line, give reported pIC50 of the entry CC1(C#Cc2cnc3c(c2)[C@]2(COC(N)=N2)c2c(ccc(-c4cncnc4)c2F)O3)COC1 [Example 344] .
[out] 9.00

[in] Dear colleague, please send me the reported pIC50 for COC(C)(C)CNc1cc2c(cn1)Oc1ccc(-c3cccnc3)cc1[C@@]21COC(N)=N1 [Example 409] when you can.
[out] 8.18

[in] Return the recorded pIC50 value; entry: CC(C)(O)C#Cc1c(OCC2(C)COC2)ccc2c1[C@]1(COC(N)=N1)c1cc(-c3cccnc3)ccc1O2 [Example 518]
[out] 7.12

[in] Input COCC#Cc1cncc(-c2ccc3c(c2)C2(COC(N)=N2)c2cc(OC)cc(F)c2O3)c1 (stereo not drawn) [Example 843] , output reported pIC50.
[out] 8.06

[in] Determine from records and report pIC50 for COc1nccc(-c2cc(F)c3c(c2)[C@]2(COC(N)=N2)c2cc(-c4cccnc4F)ccc2O3)n1 [Example 607]
[out] 8.29

[in] Please give the documented pIC50 of NC1=N[C@@]2(CO1)c1cc(-c3cccnc3F)ccc1Oc1c(F)cc([C@H]3CCOC3)cc12 [Example 299]
[out] 8.55

[in] Complete the entry with pIC50 for CC1(C#Cc2cc3c(c(F)n2)Oc2ccc(-c4cccnc4F)cc2[C@]32COC(N)=N2)COC1 [Example 737]
[out] 6.94

---

- assayed-system: Beta Secretase enzyme (BACE) (Homo sapiens)
- protocol-details: In vitro enzymatic BACE FRET (fluorescence resonance energy transfer) assay
- Format: biochemical
- stated-conditions: average IC50, enzyme assay; read-out: BACE 1 FRET assay
pIC50: −log10 of the molar value.
Please enter y where pIC50 is greater than or equal to 9, and n where it is lower.

[in] Please tell me: is the compound CC1(C)C[C@H](c2cnc3c(c2)[C@]2(COC(N)=N2)c2cc(-c4cccnc4F)ccc2O3)CCO1 [Example 469] at or over 9 in terms of pIC50?
[out] n

[in] Tell me whether pIC50 is at least 9 here: CC1(COc2cc(F)c3c(c2)[C@]2(COC(N)=N2)c2cc(-c4cccnc4)c(F)cc2O3)COC1
[out] n

[in] Given NC1=N[C@@]2(CO1)c1cc(-c3c(F)ccnc3F)ccc1Oc1cnc([C@@H]3CCCCO3)cc12 , state whether its pIC50 is at least 9.
[out] n

[in] Evaluate CC#Cc1cncc(-c2ccc3c(c2)[C@@]2(COC(N)=N2)c2cc(-c4ccc(C)nc4)nc(F)c2O3)c1 : pIC50 at minimum 9?
[out] y

[in] Tell me whether pIC50 is at least 9 here: NC1=N[C@@]2(CO1)c1cc(-c3cccnc3F)ccc1Oc1cc(F)c(C3CCOCC3)cc12
[out] n

Origin of measurements: patent US8883782B2
